These data points were gathered from PubChem BioAssay AID1220.

molecular target: Mannose-6-phosphate isomerase (Homo sapiens) (UniProt P34949); assay: MPI inhibition at elevated mannose 6-phosphate – biochemical, fluorescence intensity, high mannose 6-phosphate, primary screen (AID 1220); settings: recombinant PMI enzyme, coupled fluorescence intensity; at 20 µM; active compounds read high
Sequence (P34949 whole entry, looked up): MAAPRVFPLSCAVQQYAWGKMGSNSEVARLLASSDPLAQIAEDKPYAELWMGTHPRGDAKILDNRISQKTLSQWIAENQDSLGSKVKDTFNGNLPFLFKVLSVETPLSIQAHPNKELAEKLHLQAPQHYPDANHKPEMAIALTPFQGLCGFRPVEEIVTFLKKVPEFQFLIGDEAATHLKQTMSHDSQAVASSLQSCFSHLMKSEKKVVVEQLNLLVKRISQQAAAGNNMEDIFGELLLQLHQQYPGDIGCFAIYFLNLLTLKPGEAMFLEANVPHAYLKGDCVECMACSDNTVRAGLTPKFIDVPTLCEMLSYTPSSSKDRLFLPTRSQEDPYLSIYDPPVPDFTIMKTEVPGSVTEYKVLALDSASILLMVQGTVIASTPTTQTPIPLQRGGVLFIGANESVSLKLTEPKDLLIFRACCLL
Hit rate of the full screen: of about 190,000 compounds, about 1,300 (0.68%) were called active. For the sample, actives were picked, then their nearest neighbours and some compounds at random.
PARAMETER: inhibition

COc1ccc2c(c1)CC/C(=C/c1ccco1)C2=O | 57.4% (active)
C[C@]12CC[C@@H]3c4cc(O)c(O)cc4CC[C@H]3[C@@H]1CC[C@@H]2O | 27.9% (inactive)
CN1CCN(c2nc(-c3ccc(Cl)s3)cs2)CC1 | -4.8% (inactive)
CCOC(=O)c1oc2ccccc2c1NC(=O)COC | -10.9% (inactive)
CC(C)(C)C1=CC(=Nc2ccccc2N)C=C(C(C)(C)C)C1=O | -7.5% (inactive)

Mannose-6-phosphate isomerase (Homo sapiens) (UniProt P34949) / inhibition / "O=C1/C(=C/c2ccco2)Cc2ccccc21" : value?
16% (inactive)

Mannose-6-phosphate isomerase (Homo sapiens) (UniProt P34949) / inhibition / "Nc1ccc2c(c1)C/C(=C/c1ccco1)C2=O" : value?
-39.6% (inactive)

Mannose-6-phosphate isomerase (Homo sapiens) (UniProt P34949) / inhibition / "O=C1/C(=C/c2ccco2)CCc2ccccc21" : value?
56.9% (active)

Mannose-6-phosphate isomerase (Homo sapiens) (UniProt P34949) / inhibition / "Cc1nnc(SCc2ccc(F)cc2)n1NC/C=C/c1ccccc1" : value?
9.2% (inactive)

Mannose-6-phosphate isomerase (Homo sapiens) (UniProt P34949) / inhibition / "Cc1ccc2cccc(Oc3ccc([N+](=O)[O-])cc3[N+](=O)[O-])c2n1" : value?
23.3% (inactive)
